Molecular target: ADAM15 (Homo sapiens, UniProt Q13444)
Construct: FLAG (C); made in house; host or cells: Sf9 insect cells (baculovirus, pFastBac1)
Sequence (Q13444 213-414 limits assumed): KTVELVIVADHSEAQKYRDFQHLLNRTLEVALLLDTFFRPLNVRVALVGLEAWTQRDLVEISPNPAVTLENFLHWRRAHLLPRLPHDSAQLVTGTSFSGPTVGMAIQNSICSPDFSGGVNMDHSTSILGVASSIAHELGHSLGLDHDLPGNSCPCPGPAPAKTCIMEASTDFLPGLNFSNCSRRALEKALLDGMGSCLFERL
Assay: FRET peptide substrate screening, ADAM15
Assay type: biochemical
Design: key: from one star (*) to five stars (*****) to indicate weaker to more potent substrates respectively; from one star (*) to five stars (*****) to indicate weaker to more potent substrates respectively; from one star (*) to five stars (*****) to indicate weaker to more potent substrates respectively; from one star (*) to five stars (*****) to indicate weaker to more potent substrates respectively; (—) = no detectable activity
Conditions: FRET peptide 20 uM, room temperature
PROPERTY_LABEL: Relative proteolytic activity ADAM15

Check out these entries, answers already filled in.
| SUBSTANCE | VALUE_OBSERVED |
| --- | --- |
| X-RFAQAQQQLP-Z ({Edans‑E}-RFAQAQQQLP-{dabcyl‑K}) [CD27L, FRET peptide substrate; X = Edans-E; Z = dabcyl-K] | **** |
| Z-LAQAVRSSSR-X ({dabcyl‑K}-LAQAVRSSSR-{Edans‑E}) [TNFα(−4 + 6), FRET peptide substrate; X = Edans-E; Z = dabcyl-K] | * |
| X-PSAAQTARQHP-Z ({Edans‑E}-PSAAQTARQHP-{dabcyl‑K}) [TNFB2, FRET peptide substrate; X = Edans-E; Z = dabcyl-K] | *** |
| X-RTAAVFRP-Z ({Edans‑E}-RTAAVFRP-{dabcyl‑K}) [AD8P, FRET peptide substrate; X = Edans-E; Z = dabcyl-K] | * |

Consider the additional substance presented here.
Relative proteolytic activity ADAM15 lookup needed for X-RVRRALPS-Z ({Edans‑E}-RVRRALPS-{dabcyl‑K}) [AD8P2, FRET peptide substrate; X = Edans-E; Z = dabcyl-K] , thanks.
***
